- System: Leishmania donovani
- Protocol Notes: Antileishmanial activity against Leishmania donovani MHOM/SD/75/1246/130 amastigotes infected in mouse J774A.1 cells incubated for 72 hrs by DRAQ5 fluorescent probe based assay
- Format: functional, organism-based
- Applied Conditions: MHOM/SD/75/1246/130, J774.A1, 72 h
Outcome Measure: IC50 (µM)

Prompt: Requested field: IC50. Item: CCCCCCCCCCCCCCCCOP(=O)([O-])OCC[N+](C)(C)C
Response: 2.9

A. CO[C@H]1O[C@H](OC)c2c1ccc([C@@]1(C)CCCC(C)(C)C1)c2[C@@H](C)C(=O)O
B. CC(=O)O[C@@H]1O[C@H]2OCC3=C(C)[C@@H]([C@@]4(C)CCCC(C)(C)C4)CC[C@@H]1[C@H]32
C. CO[C@H]1OC(=O)c2ccc([C@@]3(C)CCCC(C)(C)C3)c([C@@H](C)C(=O)O)c21
D. CC(=O)O[C@@H]1O[C@H]2OC(=O)[C@H](C)C3=C([C@@]4(C)CCCC(C)(C)C4)CC[C@@H]1[C@H]32
Prompt: Thanks in advance: please rank these 4 entries by IC50, highest to lowest. Response format: the labels, sorted as the prompt asks.
Response: C, B, D, A
(C: 26.7 µM, B: 11.2 µM, D: 3.5 µM, A: 1.4 µM)

====

- Protocol Notes: Selectivity index, ratio of cytotoxicity against mouse J774A.1 cells to antileishmanial activity against Leishmania donovani MHOM/SD/75/1246/130 amastigotes infected in mouse J774A.1 cells
- Assay type: toxicity, cell-based
- Applied Conditions: read-out: Ratio IC50
Outcome Measure: selectivity ratio

Before answering, review these 3 worked examples.
Prompt: Would you mind telling me what selectivity ratio value was observed for C[C@H]1C(=O)O[C@@H](O)c2c(C=O)ccc([C@@]3(C)CCCC(C)(C)C3)c21 ?
Response: > 100

Prompt: Quick one: selectivity ratio for CC(=O)O[C@@H]1O[C@H]2OC(=O)[C@H](C)C3=C([C@@]4(C)CCCC(C)(C)C4)CC[C@@H]1[C@H]32 ?
Response: > 38

Prompt: Reported selectivity ratio for CO[C@H]1O[C@H](OC)c2c1ccc([C@@]1(C)CCCC(C)(C)C1)c2[C@@H](C)C(=O)O : what is it?
Response: > 95

Next:
Prompt: I am curious: what selectivity ratio value has been reported for CO[C@@H]1O[C@@H](OC)c2c1ccc([C@@]1(C)CCCC(C)(C)C1)c2[C@@H](C)C(=O)O [MEMBRANOLIDE C] ?
Response: > 166

Prompt: Which selectivity ratio is reported for this compound? CC(=O)O[C@@H]1O[C@H]2OC(=O)[C@H](C)C3C([C@@]4(C)CCCC(C)(C)C4)=CC=C1C32 (stereo not given in full)
Response: 4

====

Form field: IC50 (one value per entry).
- System: J774.A1
- Protocol Notes: Cytotoxicity against mouse J774A.1 cells incubated for 72 hrs by CellTiter 96 AQueous One solution cell proliferation assay
- Type: cell-based
- Applied Conditions: J774.A1, 72 h
Field format: number, assumed µM, no unit text.

Prompt: Quick check: IC50 of CC(=O)O[C@@H]1O[C@H]2OCC3=C(C)[C@@H]([C@@]4(C)CCCC(C)(C)C4)CC[C@@H]1[C@H]32 ?
Response: 73.4

Prompt: Please give the measured IC50 for this molecule: CO[C@H]1O[C@@H](OC(C)=O)c2ccc([C@@]3(C)CCCC(C)(C)C3)c([C@@H](C)C(=O)O)c21
Response: 62.9

Prompt: What value of IC50 has been reported for the following molecule? CO[C@H]1OC(=O)[C@H](C)c2c([C@@]3(C)CCCC(C)(C)C3)ccc(C=O)c21
Response: 54.6

====

- Test system: Leishmania donovani
- Protocol Notes: Antileishmanial activity against Leishmania donovani MHOM/SD/75/1246/130 amastigotes infected in mouse J774A.1 cells incubated for 72 hrs by DRAQ5 fluorescent probe based assay
- Format: functional, organism-based
- Applied Conditions: MHOM/SD/75/1246/130, J774.A1, 72 h
pIC50: −log10 of the molar value.
Outcome Measure: pIC50

Answered examples (4):
Prompt: If you can, please state the reported pIC50 value of CO[C@H]1O[C@@H](OC)c2c1ccc([C@@]1(C)CCCC(C)(C)C1)c2[C@@H](C)C(=O)O [MEMBRANOLIDE D] .
Response: 5.18

Prompt: Return reported pIC50; argument: C[C@H]1C(=O)O[C@@H](O)c2c(C=O)ccc([C@@]3(C)CCCC(C)(C)C3)c21
Response: 5.72

Prompt: I have this compound here, CO[C@@H]1O[C@@H](OC)c2c1ccc([C@@]1(C)CCCC(C)(C)C1)c2[C@@H](C)C(=O)O [MEMBRANOLIDE C] , and I need its recorded pIC50.
Response: 6.10

Prompt: Give its pIC50 value. Item: COC(=O)[C@H](C)c1c([C@@]2(C)CCCC(C)(C)C2)ccc2c1C(=O)OC2
Response: 5.01

a. CO[C@H]1O[C@@H](OC(C)=O)c2ccc([C@@]3(C)CCCC(C)(C)C3)c([C@@H](C)C(=O)O)c21
b. CO[C@@H]1O[C@H](OC)c2c1ccc([C@@]1(C)CCCC(C)(C)C1)c2[C@@H](C)C(=O)O
c. CC(=O)O[C@@H]1O[C@H]2OC(=O)[C@H](C)C3C([C@@]4(C)CCCC(C)(C)C4)=CC=C1C32 (stereo partly drawn)
Prompt: Sort entries by pIC50 from minimum to maximum value. Return value: ordered labels per request.
Response: a, b, c

====

Parameter pIC50: see the listing below.
- Tested on: J774.A1
- Protocol Notes: Cytotoxicity against mouse J774A.1 cells incubated for 72 hrs by CellTiter 96 AQueous One solution cell proliferation assay
- Assay type: cell-based
- Applied Conditions: J774.A1, 72 h
// field semantics: pIC50 = negative decimal log of concentration (mol/L)

The following molecules have reported results that may help.
Prompt: For the molecule COC(=O)[C@H](C)c1c([C@@]2(C)CCCC(C)(C)C2)ccc2c1C(=O)OC2 , what pIC50 is on record?
Response: 4.11

Prompt: // query pIC50 value for entry CO[C@H]1O[C@@H](OC)c2c1ccc([C@@]1(C)CCCC(C)(C)C1)c2[C@@H](C)C(=O)O [MEMBRANOLIDE D]
Response: 4.02

Prompt: Fill in: pIC50 of CC(=O)O[C@@H]1O[C@H]2OC(=O)[C@H](C)C3C([C@@]4(C)CCCC(C)(C)C4)=CC=C1C32 (stereo not given in full) is ___
Response: 4.91

More entries:
Prompt: Which pIC50 value belongs to CO[C@H]1OC(=O)c2ccc([C@@]3(C)CCCC(C)(C)C3)c([C@@H](C)C(=O)O)c21 ?
Response: 4.37

====

- Tested on: J774.A1
- Protocol Notes: Cytotoxicity against mouse J774A.1 cells incubated for 72 hrs by CellTiter 96 AQueous One solution cell proliferation assay
- Type: cell-based
- Applied Conditions: J774.A1, 72 h
Outcome Measure: IC50

Solved entries (count: 2):
Prompt: Requested read-out: IC50. Entry: CC(=O)O[C@@H]1O[C@H]2OC(=O)[C@H](C)C3=C([C@@]4(C)CCCC(C)(C)C4)CC[C@@H]1[C@H]32
Response: > 133 µM

Prompt: // returns reported IC50 for input CO[C@H]1O[C@H](OC)c2c1ccc([C@@]1(C)CCCC(C)(C)C1)c2[C@@H](C)C(=O)O
Response: > 133 µM

Others:
Prompt: For CCCCCCCCCCCCCCCCOP(=O)([O-])OCC[N+](C)(C)C , what is its reported IC50?
Response: > 120 µM

Prompt: Report IC50 for C[C@H]1C(=O)O[C@@H](O)c2c(C=O)ccc([C@@]3(C)CCCC(C)(C)C3)c21 please.
Response: > 150 µM

Prompt: Quick one: IC50 for CO[C@@H]1O[C@@H](OC)c2c1ccc([C@@]1(C)CCCC(C)(C)C1)c2[C@@H](C)C(=O)O [MEMBRANOLIDE C] ?
Response: > 133 µM

Prompt: Endpoint output: IC50 of CO[C@@H]1O[C@H](OC)c2c1ccc([C@@]1(C)CCCC(C)(C)C1)c2[C@@H](C)C(=O)O . Value?
Response: > 133 µM
